- Target of assay: bombesin receptors (Mus musculus)
- Construct: bombesin receptors was determined on mouse Swiss 3T3 fibroblasts; endogenous in cells; host or cells: mouse Swiss 3T3 fibroblasts
- Sequence (P21729 whole entry): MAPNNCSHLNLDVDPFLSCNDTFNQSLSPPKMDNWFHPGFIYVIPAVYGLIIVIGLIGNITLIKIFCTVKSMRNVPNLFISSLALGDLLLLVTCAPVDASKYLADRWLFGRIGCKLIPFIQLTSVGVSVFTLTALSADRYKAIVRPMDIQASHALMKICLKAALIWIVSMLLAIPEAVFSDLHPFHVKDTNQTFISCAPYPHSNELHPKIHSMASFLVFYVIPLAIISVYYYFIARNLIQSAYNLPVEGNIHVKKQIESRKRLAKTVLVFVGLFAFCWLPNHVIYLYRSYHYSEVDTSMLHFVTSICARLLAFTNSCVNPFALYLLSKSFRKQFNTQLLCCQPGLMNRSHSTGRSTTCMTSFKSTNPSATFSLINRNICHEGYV
- Experimental details: Binding affinity for the bombesin receptors on mouse Swiss 3T3 fibroblasts
- Procedure: The binding affinity of the compounds of the present invention for the bombesin receptors was determined on mouse Swiss 3T3 fibroblasts (I. Zachary and E. Rozengurt (1985) Proc. Natl. Acad. Sci. USA, 82, 7616-7620) (Table 1).
pIC50: −log10 of the molar value. Non-standard residues stand in square brackets, D forms with d. Residues, ends and D or L forms follow the SMILES beside them. *: point of attachment. X2 = CC(C)C[C@@H](CN[C@@H](CC(C)C)C(N)=O)N*; Carbamoyl(2-ClEt,NO) = O=NN(CCCl)C(=O)*; X1 = O=C(c1ccc(N(CCCl)CCCl)cc1)*; pGlu = O=C1CC[C@@H](C(=O)O)N1; Nle = CCCC[C@H](N)C(=O)O
// pIC50 lookup, one value per entry
Measured endpoint: pIC50

{"columns": ["Compound", "Observed result"],
 "data": [
  ["CCCC[C@H](NC(=O)[C@H](CC(C)C)NC(=O)CNC(=O)[C@@H](NC(=O)[C@H](C)NC(=O)[C@H](Cc1c[nH]c2ccccc12)NC(=O)[C@H](CCC(N)=O)NC(=O)[C@@H](NC(=O)N(CCCl)N=O)[C@@H](C)O)C(C)C)C(N)=O [V] ({Carbamoyl(2-ClEt,NO)}-TQWAVGL[Nle]-NH2)", 5.87],
  ["CSCC[C@H](NC(=O)[C@H](CC(C)C)NC(=O)[C@H](Cc1c[nH]cn1)NC(=O)CNC(=O)[C@@H](NC(=O)[C@H](C)NC(=O)[C@H](Cc1c[nH]c2ccccc12)NC(=O)[C@H](CCC(N)=O)NC(=O)[C@@H](NC(=O)c1ccc(N(CCCl)CCCl)cc1)[C@@H](C)O)C(C)C)C(N)=O", 9.15],
  ["CCCC[C@H](NC(=O)[C@H](CC(C)C)NC(=O)CNC(=O)[C@@H](NC(=O)[C@H](C)NC(=O)[C@H](Cc1c[nH]c2ccccc12)NC(=O)[C@H](CCC(N)=O)NC(=O)[C@@H](NC(=O)c1ccc(N(CCCl)CCCl)cc1)[C@@H](C)O)C(C)C)C(N)=O [II] (X1-TQWAVGL[Nle]-NH2)", 6.36],
  ["CC(C)C[C@@H](CN[C@@H](CC(C)C)C(N)=O)NC(=O)[C@H](Cc1cnc[nH]1)NC(=O)CNC(=O)[C@@H](NC(=O)[C@H](C)NC(=O)[C@H](Cc1c[nH]c2ccccc12)NC(=O)[C@H](CCC(N)=O)NC(=O)[C@H](CC(N)=O)NC(=O)CNC(=O)[C@H](CC(C)C)NC(=O)[C@H](CCCN=C(N)N)NC(=O)[C@H](CCC(N)=O)NC(=O)[C@@H]1CCC(=O)N1)C(C)C [[Leu¹³Ψ(CH₂-NH)Leu¹⁴]BBS, reference compound] ([pGlu]QRLGNQWAVGH-X2)", 6.67],
  ["CSCC[C@H](NC(=O)[C@H](CC(C)C)NC(=O)CNC(=O)[C@@H](NC(=O)[C@H](C)NC(=O)[C@H](Cc1c[nH]c2ccccc12)NC(=O)[C@H](CCC(N)=O)NC(=O)[C@@H](NC(=O)c1ccc(N(CCCl)CCCl)cc1)[C@@H](C)O)C(C)C)C(N)=O [I] (X1-TQWAVGLM-NH2)", 5.87]
]}

Data origin: patent EP0402852A1
